Listing of entries alongside the reported inhibition.
- testedOn: Single-strand selective monofunctional uracil DNA glycosylase (Homo sapiens)
- conditions: Compound Concentration 10.0 uM, Hit No
- Description: Inhibition of SMUG1 by quantifying inhibition of SMUG1-mediated cleavage and dissociation of quenched duplex DNA oligonucleotides, measured as fluorescence at 594 nm. To generate a functional strand incision and increase turn-over this assay is coupled to APE1.
Where a SMILES comes first, the peptide text is derived from it. [ ]: non-standard residue; d: D form. Arg(Me) = CNC(=N)NCCC[C@H](N)C(=O)O; d3Pal = N[C@H](Cc1cccnc1)C(=O)O; azaGly = NNC(=O)O
recordedMetric: inhibition (%)

• O=C(c1cc2c(cc1F)OC(c1ccc(F)cc1)(c1ccc(Cl)cc1Cl)O2)N1CCOCC1 (stereo not given) = 5.83
• O=C(Nc1cc(-c2ccccc2)nn1-c1ccccc1F)c1ccc([N+](=O)[O-])cc1 = -6.29
• CC(C)S(=O)(=O)c1ccc2nccc(Nc3ccc4scnc4c3)c2c1 = 32.3
• CO[C@@H](C)c1c(Nc2ccc([C@H](N(C)C(=O)C3CCS(=O)(=O)CC3)C(F)(F)F)cc2)cnc2cc(Cl)nn12 = -7.05
• Cc1ccc2[nH]c(CNCCCc3ccncc3)cc(=O)c2c1 = 7.47
• O=C(NCc1cccnc1OCC(F)(F)F)c1cncc(-c2ccc(Cl)cc2)c1 = -3.23
• CCOC(=O)C1Cc2ccccc2CN1C(=O)c1ccc(SC)s1 (stereo not given) = 19.5
• COc1ccc2c(c1)C(C(=O)N(Cc1ccc(N(C)C)cc1)c1ccc(C(C)C)cc1)CCC2 (stereo not given) = -6.91
• CC(CNS(=O)(=O)C(C)C)c1ccc(-c2ccc(C#N)cc2)cc1 (stereo not given) = 7.84
• COc1cc2c(CCNC(C)=O)c[nH]c2cc1Cl = 0.936
• CC1CCN(c2ccnc(NCc3cn(C)cn3)n2)CC1 = 15.3
• CN(C)C(=O)N1CC[C@H](NC2=Nc3cc(F)ccc3N(CC(F)F)c3ccc(Cl)cc32)C1 = 19.6
• COc1c(C(=O)/C=C/c2ccccc2)c(O)c(OC)c2occc12 = 3.49
• C[C@@H](CN1CCC(Cc2ccccc2)CC1)[C@@H](O)c1ccc(O)cc1 = 4.28
• Nc1c(C(=O)NCc2ccc(C(=O)NCCCC3CCCCC3)cc2)cnn1-c1ccccc1 = -1.31
• Cn1c(C2(NC(=O)c3ccc(NCC4CCCCC4)nc3)CCC2)nc2ccc(/C=C/C(=O)O)cc21 = 15.9
• Cc1nc[nH]c1CCN = -7.49
• Cc1cc(-c2ccnc(Nc3cnn(C)c3)n2)ccc1CNC(=O)N1CC(OC(C)C)C1 = 28.1
• COc1ccc(Br)cc1S(=O)(=O)NC(=O)/C=C/c1ccccc1Cc1ccc2ccccc2c1 = -2.31
• CNC(=N)NCCC[C@H](NC(=O)[C@H](CC(C)C)NC(=O)NNC(=O)[C@H](Cc1ccccc1)NC(=O)[C@H](CO)NC(=O)[C@H](CC(N)=O)NC(=O)[C@@H](Cc1cccnc1)NC(=O)[C@H](N)Cc1ccc(O)cc1)C(=O)NCC(N)=O (H-[dY][d3Pal]NSF[azaGly]L[Arg(Me)]G-NH2) = 25.5
• CC[C@H]1CN(c2nc(N)c(C(N)=O)nc2Cl)CCN1C1CCN(Cc2ccc(Cl)cc2)CC1 = -7.08
• COc1cc(C(=O)N(CCCc2ccccc2)Cc2ccc(CC(=O)O)cc2)cc(OC)c1C = -4.44
• C/C(=N\NC(=O)[C@@H]1C(=O)NC[C@H]1c1ccccc1)c1cccc(Br)c1 = 9.22
• CCC(F)(F)c1cc(N2CCC(S(C)(=O)=O)CC2)nc2sc(C(N)=O)c(N)c12 = 8.86
• N=C(N)NC(=O)Cc1c(Cl)cccc1Cl = 3.31

---

- testedOn: Endonuclease 8-like 2 (Homo sapiens)
- conditions: Compound Concentration 10.0 uM, Hit No
- Description: Inhibition of NEIL2 by quantifying inhibition of NEIL2-mediated cleavage and dissociation of quenched duplex DNA oligonucleotides, measured as fluorescence at 594 nm.
This listing pairs compounds with measured inhibition.
recordedMetric: inhibition (%)

* CN1CCN2c3ncccc3Cc3ccccc3C2C1 (stereo not given) | 10
* CN1CCN(C(=O)C(C)(C)c2ccc(C(=O)Nc3cn4cc(-c5ccncc5)ccc4n3)cc2)CC1 | -4.06
* C[C@@H](NCCCc1cccc(C(F)(F)F)c1)c1cccc2ccccc12 | 13.5
* O=C(O)c1ccc2cc(-c3ccc(O)c(C45CC6CC(CC(C6)C4)C5)c3)ccc2c1 | -9.42
* CC(=O)c1ccc2c(c1)[C@@H]1C=CC[C@@H]1[C@H](c1cc3c(cc1Br)OCO3)N2 | 9.25

---

- testedOn: UniProtKB P13051
- Sequence (P13051 whole entry): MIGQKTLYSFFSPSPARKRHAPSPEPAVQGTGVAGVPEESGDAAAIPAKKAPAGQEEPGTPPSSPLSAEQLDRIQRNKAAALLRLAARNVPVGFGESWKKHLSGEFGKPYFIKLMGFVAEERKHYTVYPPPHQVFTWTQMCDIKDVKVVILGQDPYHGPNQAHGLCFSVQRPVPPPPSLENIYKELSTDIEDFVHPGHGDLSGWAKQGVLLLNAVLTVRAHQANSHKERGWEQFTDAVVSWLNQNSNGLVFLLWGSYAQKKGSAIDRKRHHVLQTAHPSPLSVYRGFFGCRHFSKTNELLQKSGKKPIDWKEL
- conditions: Compound Concentration 10.0 uM, Hit No
- Description: Inhibition of UNG by quantifying inhibition of UNG-mediated cleavage and dissociation of quenched duplex DNA oligonucleotides, measured as fluorescence at 594 nm. To generate a functional strand incision and increase turn-over this assay is coupled to APE1.
# reported inhibition; entries follow
recordedMetric: inhibition

* Nc1nc(NCc2ccccc2)nc(-c2cccc(CO)c2)n1 | -0.892%
* O=c1nc(-c2ccccn2)sc2ccccc12 | -3.04%
* CC1=C(C#N)C(c2ccc3c(c2)c(NC(=O)c2ccccc2C)nn3C)C(C#N)=C(C)N1 | 6.97%
* CC(=O)C1=C(C)N(c2cccc(C(F)(F)F)c2)C(=O)N[C@@H]1c1ccc(C#N)nc1 | 2.25%
* C=CC(=O)N1CCC([C@@H]2CCNc3c(C(N)=O)c(-c4ccc(Oc5ccccc5)cc4)nn32)CC1 | -0.527%
* CN1C2CCC1CC(OC(c1ccc(F)cc1)c1ccc(F)cc1)C2 (configuration not stated) | -4.51%
* Cn1nc(C(F)(F)F)cc1-c1cnc(N2CCc3cc(S(=O)(=O)Nc4c(F)cc(Cl)cc4F)cc(N4CCCC4=O)c32)nc1 | 1.37%
* CN1C(=O)[C@@H](NC(=O)c2cc3ccccc3[nH]2)N=C(c2ccccc2)c2ccccc21 | -5.09%
* Cc1cc(C(=O)N2CCN(C3CN(C(=O)c4ccc(-c5ccccc5)cc4)C3)CC2)no1 | 2.8%
* C[C@@H](C(N)=O)[C@H](N)c1nc2ccc(C(C)(C)C)cc2[nH]1 | -4.85%
* COc1c(C(=O)/C=C/c2ccccc2)c(O)c(OC)c2occc12 | -2.63%
* COc1cc(C(C)C)c(Oc2cnc(NC(CO)CO)nc2N)cc1I | -4.17%

---

Some compounds, each annotated with its measured inhibition.
- testedOn: UniProtKB P78549
- Sequence (P78549 whole entry): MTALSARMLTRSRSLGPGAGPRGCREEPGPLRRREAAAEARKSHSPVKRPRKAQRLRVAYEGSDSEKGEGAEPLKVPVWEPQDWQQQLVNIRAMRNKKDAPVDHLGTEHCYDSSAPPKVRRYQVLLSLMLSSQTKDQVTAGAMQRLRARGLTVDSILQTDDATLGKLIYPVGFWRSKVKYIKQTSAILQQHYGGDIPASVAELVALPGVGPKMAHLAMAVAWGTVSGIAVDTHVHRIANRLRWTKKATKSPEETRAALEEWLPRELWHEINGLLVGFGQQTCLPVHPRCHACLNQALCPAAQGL
- conditions: Compound Concentration 10.0 uM, Hit No
- Description: Inhibition of NTHL1 by quantifying inhibition of NTHL1-mediated cleavage and dissociation of quenched duplex DNA oligonucleotides, measured as fluorescence at 594 nm.
recordedMetric: inhibition (%)

• Cc1cc(C(C)(C)C)c(O)c(C)c1CC1=NCCN1 = 1.92
• Cc1ccnc(Nc2nc(-c3ccccn3)cs2)c1 = 17.1
• COc1c(C(=O)/C=C/c2ccccc2)c(O)c(OC)c2occc12 = 20.4
• CN(C)C(=O)Cn1cc(-c2nc(C3(c4ccc(-c5cnc(N)nc5)cc4)CC3)no2)cn1 = -5.89
• COc1cc(C(=O)N(CCC2CCCN2C)C/C(C)=C/c2ccccc2F)cc(OC)c1OC (stereo unspecified) = -5.21
• Clc1cccc(-n2nnnc2NCc2ccccc2Oc2ccccn2)c1Cl = 4.7
• O=C(Nc1ccc(-n2nc(C(F)(F)F)cc2C(F)(F)F)cc1)c1ccncc1F = -4.39
• CC1(C)N=C(C2CCCCC2)c2ccc(C#N)cc2N(c2ccc(NCCNC3CCOCC3)cc2)C1=O = 19.6
• O=C1c2ccc(Nc3ccc(F)cc3F)cc2CCc2ccc(OC[C@H](O)CO)cc21 = 0.775
• C=CCN1C[C@H](C(=O)N(CCCN(C)C)C(=O)NCC)C[C@@H]2c3cccc4[nH]cc(c34)C[C@H]21 = 1.92
• O=C(O)Cc1cccc(OCCCN(Cc2cccc(C(F)(F)F)c2Cl)CC(c2ccccc2)c2ccccc2)c1 = 2
• CN1CCN(c2nc(N)c3ccccc3n2)CC1 = 17.1
• O=C(Nc1cccnc1)c1cc(-c2ccnc(F)c2)ccc1OCc1ccccc1 = 4.27
• O=c1cccc2n1C[C@@H]1CNC[C@H]2C1 = -4.39
• CC(C)(C[C@H]1CN(S(=O)(=O)c2cccc(C(F)(F)F)c2)c2cc(-c3cc(F)cc(OC(F)F)c3)ccc2O1)C(=O)O = -3.92
• CCOc1cc(N2CCC(O)CC2)ccc1Nc1ncc2c(n1)N(C)c1ccccc1C(=O)N2C = 1.48
• O=C(O)c1cc(-c2ccc(C3CCNCC3)cc2)c2ccc(-c3ccc(C(F)(F)F)cc3)cc2c1 = 2.15
• Nc1nc2c(c(N3CCNCC3)n1)CCC1=C2[C@@H]2CCCC[C@@H]2O1 = 7.79
• CC(C)C[C@H](NC(=O)[C@H](CC(N)=O)NC(=O)[C@@H]1CCCN1C(=O)[C@@H](N)C(C)C)C(=O)N1CCC[C@H]1C(=O)N[C@@H](CCC(N)=O)C(=O)N[C@@H](CCCNC(=N)N)C(=O)N[C@@H](Cc1ccccc1)C(N)=O = 17.1
• Cc1cc(C)c(S(=O)(=O)N(Cc2ccc(-c3cccc(S(C)(=O)=O)c3)cc2)Cc2ccc(C(F)(F)F)o2)c(C)c1 = 5.94
• O=C(Nc1ccccc1Br)N[C@@H]1CCN(c2ccc(C(F)(F)F)cn2)C1 = 6.35
• C[C@@H]1CCc2ncc(F)cc2[C@H]2CCCN2c2ccn3ncc(c3n2)C(=O)N1 = -1.31
• C=C1/C(=C\C=C2/CCC[C@]3(C)[C@@H]([C@H](C)/C=C/C=C/C(O)(CC)CC)CC[C@@H]23)C[C@@H](O)C[C@@H]1O = -4.57
• NC(=O)c1cc(-c2ccc(S(=O)(=O)[C@H]3CC[C@H](Nc4ccc(C(F)(F)F)cn4)CC3)cc2)ccn1 = 17.1
• CCCCC[C@H](O)/C=C/[C@@H]1[C@@H](C/C=C\CCCC(=O)O)[C@@H](O)C[C@H]1O = 7.79
• COc1ccc(-n2nc3c4ccccc4[nH]cc-3c2=O)cc1 = -6.86

Hello, the source for this data is ChEMBL document CHEMBL5665443, in case you need it.
